# assay notes: Clearance in C57/BL6 mouse at 3 mg/kg, iv
# Format: ADME, organism-based
# condition set: in vivo
result type: clearance (mL/min/kg)
Numbers only; they are read as mL/min/kg.

# clearance (compound: Clc1cc(-c2nnn[nH]2)ccc1-c1ccc(-n2ccnc2)cc1 ) is 1.4

# clearance of Cc1cc(-n2ccnc2)cnc1-c1ccc(-c2nnn[nH]2)cc1F = 17

---

Reported inhibition at 20 min, 10 µM values for the following molecules.
# target system: CYP3A4 (Homo sapiens, UniProt P08684)
# Sequence (P08684 whole entry): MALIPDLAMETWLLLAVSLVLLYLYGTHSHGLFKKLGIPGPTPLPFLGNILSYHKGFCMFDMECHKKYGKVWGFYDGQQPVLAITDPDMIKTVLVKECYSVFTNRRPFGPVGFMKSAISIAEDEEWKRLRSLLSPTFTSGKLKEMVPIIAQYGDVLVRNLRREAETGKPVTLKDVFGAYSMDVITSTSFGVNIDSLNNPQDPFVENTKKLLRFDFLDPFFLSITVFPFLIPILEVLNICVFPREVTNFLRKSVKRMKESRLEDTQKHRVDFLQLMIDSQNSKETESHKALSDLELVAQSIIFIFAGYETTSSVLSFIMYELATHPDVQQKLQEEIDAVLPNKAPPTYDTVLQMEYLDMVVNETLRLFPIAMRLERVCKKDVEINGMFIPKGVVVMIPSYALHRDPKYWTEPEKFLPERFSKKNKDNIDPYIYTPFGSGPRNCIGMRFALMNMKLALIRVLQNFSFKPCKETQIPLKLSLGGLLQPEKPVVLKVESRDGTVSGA
# assay notes: Inhibition of CYP3A4 in human liver microsomes at 10 uM after 20 mins in presence of NADPH by LC/MS/MS analysis relative to control
# Assay type: ADME
# condition set: liver microsomes
Give the quantity in %, number only.

Record excerpt, results attached:
# molecule, target system, inhibition at 20 min, 10 µM, %
records = [
    ("Cc1cc(-n2ccnc2)ccc1-c1ccc(C(=O)O)cc1", "CYP3A4 (Homo sapiens, UniProt P08684)", 4),
    ("Clc1cc(-n2ccnc2)cnc1-c1ccc(-c2nnn[nH]2)cc1", "CYP3A4 (Homo sapiens, UniProt P08684)", 1),
    ("Clc1cc(-c2nnn[nH]2)ccc1-c1ccc(-n2ccnc2)cc1", "CYP3A4 (Homo sapiens, UniProt P08684)", 55),
    ("c1cn(-c2ccc(-c3ccc(-c4nn[nH]n4)cc3)cc2)cn1", "CYP3A4 (Homo sapiens, UniProt P08684)", 54),
    ("Cc1cc(-n2ccnc2)ccc1-c1ccc(-c2nnn[nH]2)cc1Cl", "CYP3A4 (Homo sapiens, UniProt P08684)", 43),
]

Consider now this further molecule.
inhibition at 20 min, 10 µM for CYP3A4 (Homo sapiens, UniProt P08684) with input Cc1nccn1-c1ccc(-c2ccc(-c3nnn[nH]3)cc2)cc1 equals -2

---

# assay notes: Aqueous solubility of compound in 0.1 N HCl
# Assay type: physicochemical
result type: solubility (µg/mL)
Only the number, expressed in µg/mL, is required.

Recorded solubility (compound Clc1cc(-c2nnn[nH]2)ccc1-c1ccc(-n2ccnc2)cc1 ): 20

---

# assay notes: Half life in C57/BL6 mouse at 30 mg/kg, po
# Type: ADME, organism-based
# condition set: in vivo
result type: half-life
Write the figure, then the unit, nothing else.

# molecule, experimental result
measured = [
    ("Clc1cc(-c2nnn[nH]2)ccc1-c1ccc(-n2ccnc2)cc1", "6 h"),
]

Lab book: half-life of Cc1cc(-n2ccnc2)cnc1-c1ccc(-c2nnn[nH]2)cc1F noted as 5.3 h

---

# assay notes: Metabolic stability of rat liver microsomes assessed as parent compound remaining at 0.1 uM after 60 mins in presence of NADPH by LC/MS/MS analysis
# Type: ADME, microsome
# condition set: read-out: Stability
result type: remaining at 1 h, 0.1 µM
# do not omit the unit; it follows the number

# example entries with known answers
# molecule, remaining at 1 h, 0.1 µM
measured = [
    ("Clc1cc(-n2ccnc2)cnc1-c1ccc(-c2nnn[nH]2)cc1", "39%"),
    ("Clc1cc(-c2nnn[nH]2)ccc1-c1ccc(-n2ccnc2)cc1", "83%"),
    ("c1cn(-c2ccc(-c3ccc(-c4nn[nH]n4)cc3)cc2)cn1", "58%"),
    ("CCc1cc(-n2ccnc2)ccc1-c1ccc(-c2nnn[nH]2)cc1", "71%"),
    ("Cc1cc(-n2ccnc2)cnc1-c1ccc(-c2nnn[nH]2)cc1", "50%"),
    ("CCc1cc(-n2ccnc2)ccc1-c1ccc(-c2nnn[nH]2)cc1F", "80%"),
    ("Cc1cc(-n2ccnc2)ccc1-c1ccc(C(=O)O)cc1", "64%"),
    ("CCc1cc(-n2ccnc2C)ccc1-c1ccc(-c2nnn[nH]2)cc1", "99%"),
]

Quick note, remaining at 1 h, 0.1 µM for Cc1cc(-n2ccnc2)ccc1-c1ccc(-c2nnn[nH]2)cc1 landed at 68%

# remaining at 1 h, 0.1 µM (compound: Cc1nccn1-c1ccc(-c2ccc(-c3nnn[nH]3)cc2)cc1 ) is 82%

Noted for Cc1cc(-n2ccnc2)cnc1-c1ccc(-c2nnn[nH]2)cc1F : its remaining at 1 h, 0.1 µM reads 53%
